CC50, MT-2 cells: measured values
measured-attribute: CC50

[[record]]
compound_structure_string = "O=C(O)c1cccc(-c2ccc(/C=C3\\SC(=S)N(c4ccc(F)cc4)C3=O)o2)c1"
test_result = "> 376 µM"

[[record]]
compound_structure_string = "Cc1cccc(NC(=O)CN2C(=O)S/C(=C\\c3ccc(-c4ccc(Cl)c(C(=O)O)c4)o3)C2=O)c1"
test_result = "> 464 µM"

[[record]]
compound_structure_string = "C#CCN1C(=O)S/C(=C\\c2ccc(-c3ccc(Cl)c(C(=O)O)c3)o2)C1=O"
test_result = "> 413 µM"

[[record]]
compound_structure_string = "COC(=O)c1ccccc1N1C(=O)/C(=C/c2ccc(-c3ccc(Cl)c(C(=O)O)c3)o2)SC1=S"
test_result = "> 320 µM"

